System: Spodoptera exigua
Protocol: whole plant or invertebrate
Format: in vivo
Assay setup: 500 ppm; 2nd-instar larvae, leaf immersion feeding
Endpoint: Spodoptera exigua Mortality (%)
Numbers only, in %.

Examples with answers:
State the recorded Spodoptera exigua Mortality (%) for this entry: CC(=O)C1(C(=O)C(F)(F)F)Nc2c([S+]([O-])C(F)(F)F)c(C#N)nn2-c2cc(C(F)(F)F)cc(Cl)c21 (centres unmarked) [c-39]
89

What value of measured Spodoptera exigua Mortality (%) is listed for CC(=O)C1Nc2c([S+]([O-])C(F)(F)F)c(C(F)(F)F)nn2-c2c(Cl)cc(C(F)(F)F)cc21 (stereo not drawn) [d-112] ?
80

Would you kindly share the measured Spodoptera exigua Mortality (%) for N#CCC1(C(F)(F)F)Nc2c([S+]([O-])C(F)(F)F)c(C#N)nn2-c2c(Cl)cc(C(F)(F)F)cc21 (stereo not drawn) [d-70] ?
90

Spodoptera exigua Mortality (%) lookup needed for COC(=O)C(C)C1Nc2c(OC(F)(F)F)c(C#N)nn2-c2c(Cl)cc(C(F)(F)F)cc21 (stereo not drawn) [d-122] , thanks.
84

Item N#Cc1nn2c(c1[S+]([O-])C(F)(F)F)NC(C#N)(CC(F)(F)F)c1cc(C(F)(F)F)cc(Cl)c1-2 (stereo not drawn) [d-65] has what recorded Spodoptera exigua Mortality (%)?
100

Using the record for N#Cc1nn2c(c1[S+]([O-])C(F)(F)F)NC(C#N)c1cc(C(F)(F)F)cc(Cl)c1-2 (stereo not drawn) [d-82] , report its Spodoptera exigua Mortality (%).
89

So what does the record say about Spodoptera exigua Mortality (%) for COC(=O)CC1(C(=O)OC)Nc2c([S+]([O-])C(F)(F)F)c(C#N)nn2-c2cc(OC(F)(F)F)cc(Cl)c21 (centres unmarked) [c-224] ?
95

---
Requested field: Spodoptera exigua Mortality (%). Item: N#Cc1nn2c(c1[S+]([O-])C(F)(F)F)NC(Cl)c1c(Cl)cncc1-2 (centres unmarked) [b-80]
90

###

Tested on: Apis cernan
Protocol: Toxicity test on adult worker bees of Apis cernan, small beaker method
Type: in vivo
Assay setup: 500 ppm, 48 hours
Endpoint: Toxicity determination Apis cernan Mortality (%)
One number for each entry, in %.

Below, 3 compounds whose answers are already recorded.
Given the entry C=CC1(C(F)(F)F)Nc2c([S+]([O-])C(F)(F)F)c(C#N)nn2-c2c(Cl)cc(C(F)(F)F)cc21 (stereo not shown) , report its measured Toxicity determination Apis cernan Mortality (%).
7

Request the reported Toxicity determination Apis cernan Mortality (%) associated with CNC(=O)C1(CC(=O)OC)Nc2c([S+](C)[O-])c(C(C)=O)nn2-c2c(Cl)cc(C(F)(F)F)cc21 (stereo not shown)
3

// lookup Toxicity determination Apis cernan Mortality (%) for C=CC1(CCl)Nc2c(-c3ccccc3C(F)(F)F)c(C#N)nn2-c2c(Cl)cc(C(F)(F)F)cc21 (stereo not shown)
9

More entries:
Need Toxicity determination Apis cernan Mortality (%) of C=CC1(CCl)Nc2c([S+]([O-])C(F)(F)F)c(C#N)nn2-c2c(Cl)cc(C(F)(F)F)cc21 (stereo not shown) , thanks.
10

###

System: Plutella xylostella
Protocol: whole plant or invertebrate
Type: in vivo
Assay setup: 500 ppm; 2nd-instar larvae, leaf immersion feeding
Endpoint: Plutella xylostella Mortality (%)
Give bare numbers, in %.

// lookup Plutella xylostella Mortality (%) for CC(=O)CC1(C(C)=O)Nc2c([S+]([O-])C(F)(F)F)c(C#N)nn2-c2c(Cl)cc(C(F)(F)F)cc21 (stereo not drawn)
95

Here are 2 compounds. What values of Plutella xylostella Mortality (%) were reported for them?
1. COC(=O)CC1(C(=O)OC)Nc2c(C(F)(F)F)c(C#N)nn2-c2cc(C(F)(F)F)cc(Cl)c21 (stereo not drawn)
2. N#Cc1nn2c(c1[S+]([O-])C(F)(F)F)NC(Br)(CC(=O)C(F)(F)F)c1cc(C(F)(F)F)cc(Cl)c1-2 (stereo not drawn)

1: 95; 2: 100

Look at each compound and report its Plutella xylostella Mortality (%).
1. CC[S+]([O-])c1c(C#N)nn2c1NC(CC(=O)OC)(C(=O)OC)c1cc(C(F)(F)F)cc(Cl)c1-2 (stereo not drawn)
2. N#CCC1(Cl)Nc2c([S+]([O-])C(F)(F)F)c(C#N)nn2-c2cncc(Cl)c21 (stereo not drawn)
3. COC(=O)CC1Nc2c([S+]([O-])C(F)(F)F)c(C(F)(F)F)nn2-c2cncc(Cl)c21 (stereo not drawn)
4. CCOC(=O)CC1(C(=O)OC)Nc2c([S+]([O-])C(F)(F)F)c(C#N)nn2-c2c(C(F)(F)F)ccc(Cl)c21 (stereo not drawn)
5. COC(=O)CC1(C(=O)OC)Nc2c([S+]([O-])C(F)(F)F)c(C#N)nn2-c2c(C(F)(F)F)ccc(Cl)c21 (stereo not drawn)
6. COC(=O)C1(CC(C)=O)Nc2c([S+]([O-])C(F)(F)F)c(C#N)nn2-c2c(Cl)cc(C(F)(F)F)cc21 (stereo not drawn)
7. CCOC(=O)C1(CC(=O)OC(C(F)(F)F)C(F)(F)F)Nc2c([S+]([O-])C(F)(F)F)c(C#N)nn2-c2c(Cl)cc(C(F)(F)F)cc21 (stereo not drawn)

90
95
100
100
100
100
100

Would you mind listing Plutella xylostella Mortality (%) for each of the following compounds?
1. N#CCC1Nc2c([S+]([O-])C(F)(F)F)c(C#N)nn2-c2cncc(Cl)c21 (stereo not drawn)
2. N#Cc1nn2c(c1[S+]([O-])C(F)(F)F)NC(CC(=O)C(F)(F)F)(C(=O)C(F)(F)F)c1cc(C(F)(F)F)cc(Cl)c1-2 (stereo not drawn)
3. N#Cc1nn2c(c1OC(F)(F)F)NC(C(=O)C(F)(F)F)c1cc(C(F)(F)F)cc(Cl)c1-2 (stereo not drawn)
4. CC(C)C1Nc2c(OC(F)(F)F)c(C#N)nn2-c2cncc(Cl)c21 (stereo not drawn)
5. CCOC(=O)CC1(C(=O)OCC)Nc2c([S+]([O-])C(F)(F)F)c(C#N)nn2-c2c(C(F)(F)F)ccc(Cl)c21 (stereo not drawn)

[89, 100, 96, 95, 100]

Required: Plutella xylostella Mortality (%), one value per compound below.
1. COC(=O)C1(CC(=O)OCC(F)F)Nc2c([S+]([O-])C(F)(F)F)c(C#N)nn2-c2c(C(F)(F)F)ccc(Cl)c21 (stereo not drawn)
2. N#CCC1(C(F)(F)F)Nc2c([S+]([O-])C(F)(F)F)c(C#N)nn2-c2c(Cl)cc(C(F)(F)F)cc21 (stereo not drawn)
3. [O-][S+](c1c(C(F)(F)F)nn2c1NC(Br)c1c(Cl)cncc1-2)C(F)(F)F (stereo not drawn)
4. CCCCOC(=O)CC1(C(=O)OCCCC)Nc2c([S+]([O-])C(F)(F)F)c(C#N)nn2-c2c(Cl)cc(C(F)(F)F)cc21 (stereo not drawn)
5. COC(=O)CC1(C#N)Nc2c([S+]([O-])C(F)(F)F)c(C#N)nn2-c2c(Cl)cc(C(F)(F)F)cc21 (stereo not drawn)

[100, 91, 96, 90, 100]

Recorded Plutella xylostella Mortality (%) for COC(=O)C1(CC(F)(F)F)Nc2c([S+]([O-])C(F)(F)F)c(C#N)nn2-c2c(Cl)cc(C(F)(F)F)cc21 (stereo not drawn) , please?
90

###

Tested on: Solenopsis invicta
Protocol: whole plant or invertebrate
Format: in vivo
Assay setup: 100 ppm; 72 h; water test tube poison-feeding
Endpoint: Solenopsis invicta Mortality (%) 72 h
Numbers only, in %.

Any idea what Solenopsis invicta Mortality (%) 72 h was measured for COC(=O)CC1(C(=O)OC)Nc2c([S+]([O-])C(F)(F)F)c(C#N)nn2-c2cncc(Cl)c21 (centres unmarked) ?
97

Which Solenopsis invicta Mortality (%) 72 h value is on record for N#Cc1nn2c(c1[S+]([O-])C(F)(F)F)NC(C#N)c1cc(C(F)(F)F)cc(Cl)c1-2 (centres unmarked) ?
90

May I ask what Solenopsis invicta Mortality (%) 72 h has been recorded for CC(=O)C1(C(=O)C(F)(F)F)Nc2c([S+]([O-])C(F)(F)F)c(C#N)nn2-c2cc(C(F)(F)F)cc(Cl)c21 (centres unmarked) ?
90

Each of the following entries comes with a recorded value; kindly state Solenopsis invicta Mortality (%) 72 h for each.
1. N#Cc1nn2c(c1[S+]([O-])C(F)(F)F)NC(Cl)c1cc(C(F)(F)F)cc(Cl)c1-2 (centres unmarked)
2. N#Cc1nn2c(c1OC(F)(F)F)NC(C(=O)C(F)(F)F)c1cc(C(F)(F)F)cc(Cl)c1-2 (centres unmarked)
3. COC(=O)CC1(C(=O)OC)Nc2c(OC(F)(F)F)c(C#N)nn2-c2c(Cl)cc(C(F)(F)F)cc21 (centres unmarked)

1: 85; 2: 97; 3: 87

State the recorded Solenopsis invicta Mortality (%) 72 h for every item in the following list.
1. COC(=O)CC1(C(=O)OC)Nc2c([S+]([O-])C(F)(F)F)c(C#N)nn2-c2ccc(C(F)(F)F)c(Cl)c21 (centres unmarked)
2. O=C(C1Nc2c([S+]([O-])C(F)(F)F)c(C(F)(F)F)nn2-c2cncc(Cl)c21)C(F)(F)F (centres unmarked)
3. N#Cc1nn2c(c1[S+]([O-])C(F)(F)F)NC(Cl)(CC(F)(F)F)c1c(Cl)cncc1-2 (centres unmarked)
4. N#CCC1(Cl)Nc2c([S+]([O-])C(F)(F)F)c(C#N)nn2-c2c(Cl)cc(C(F)(F)F)cc21 (centres unmarked)
5. CC[S+]([O-])c1c(C#N)nn2c1NC(CC(=O)OC)(C(=O)OC)c1cc(C(F)(F)F)cc(Cl)c1-2 (centres unmarked)
6. CC(=O)C1(CC(F)(F)F)Nc2c([S+]([O-])C(F)(F)F)c(C#N)nn2-c2c(Cl)cc(C(F)(F)F)cc21 (centres unmarked)

1. 99
2. 100
3. 90
4. 90
5. 100
6. 100
